For each record, write down the corresponding protein stability index.
B1: MYOZ1 (parent)
chain: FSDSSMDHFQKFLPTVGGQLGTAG

Variants of: B1
protocol: protein stability index of a GFP-peptide fusion (GPS, HEK-293T) (PSI 1-6); higher = more stable;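 also: lentivirally expressed fusions sorted by FACS into six bins by GFP to DsRed ratio, PSI derived from sequencing read proportions per bin multiplied by bin number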
experimental-context: c terminus: a fixed tail appended
One number for each entry.

Inquiry: Provide one value: measured protein stability index of Q10E
Reply text: 1.95

Below is a list of variants. For each, state its recorded protein stability index.
1. G17H
2. M6Q
3. A23H

Reply text:
1: 2.47; 2: 3; 3: 2.3

Batch of 3 variants: report protein stability index for each.
1. K11M
2. P14V
3. L13K

Reply text:
1.34
3.62
3.53
